MEASUREMENT_TARGET: T1, VbrR (state not stated) (Vibrio parahaemolyticus, UniProt A0A0L8SKF9 1-220)
T1 sequence: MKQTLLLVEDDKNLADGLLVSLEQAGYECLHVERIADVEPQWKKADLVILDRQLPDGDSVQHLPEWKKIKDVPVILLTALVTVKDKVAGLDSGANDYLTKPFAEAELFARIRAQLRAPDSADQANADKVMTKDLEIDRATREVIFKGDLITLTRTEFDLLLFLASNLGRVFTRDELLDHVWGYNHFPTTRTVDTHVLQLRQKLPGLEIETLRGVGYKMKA
ASSAY: BLI; 10-160 uM DNA; text order of the two values (0.69, 0.77) matches 30 bp then 49 bp; BLI (Octet RED, biotinylated protein on streptavidin sensors), PBS: 10 mM phosphate pH 7.4, 2.7 mM KCl, 137 mM NaCl, 25 C; 1:1 fit
CONDITION_DETAILS: protein: recombinant, tags: N-terminal 6xHis, chain copies: 2
MEASURE: pKd
Please treat pKd as minus the base-10 logarithm of the molar concentration.

Given the binder exsC promoter 30 bp (dsDNA) DNA 1: AACACAATTCTAATTCTTCATCGCTTGTCG DNA 2: CGACAAGCGATGAAGAATTAGAATTGTGTT , what is its reported pKd?
6.16

Numbers sourced from paper PMC10157535.
